- target.or.test.system: T1, Aβ(1-40) monomer (human)
- T1 construct: also called monomeric Aβ(1-40); Aβ(1-40) monomer, 0.1% NH4OH
- T1 sequence (peptide, as listed by the source): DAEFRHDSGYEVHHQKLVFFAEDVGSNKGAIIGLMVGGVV
- test: dot blot densitometry, antibody 0.2 µg/ml; column Aβ(1-40) monomer, 0.1% NH4OH
- Procedure: Dot blot procedure: [0556] 1) 1 μl each of the different Aβ-standards (in their 5 serial dilutions) were dotted onto the nitrocellulose membrane in a distance of approximately 1 cm from each other. [0557] […] Quantitative evaluation was done using a densitometric analysis (GS800 densitometer (BioRad) and software package Quantity one, Version […] (BioRad)) of the dot-intensity. […] This threshold value was determined for every dot-blot independently. […]
property: relation between recognition of Aβ(20-42) globulomer and the respective Aβ form

relation between recognition of Aβ(20-42) globulomer and the respective Aβ form measured on monoclonal antibody 7E5 (antibody, V domains shown, Mouse monoclonal antibody from hybridoma; also called ML15-7E5.5E12; hybridoma ATCC PTA-7809) VH: EVKLVESGGGLVQPGGSRKLSCAASGFTFSDYEMVWVRQAPGEGLEWVAYISSGSRTIHYADTVKGRFTISRDNPKNTLFLQMSSLRSEDTAMYYCARTLLRLHFDYWGQGTILTVSS VL: DIVMSQSPSSLAVSVGEKVTMSCRSSQSLFYRSNQKNFLAWYQQKPGQSPKLLIYWASTRESGVPDRFTGSGSGTDFTLTISSVKAEDLAVYYCQQYYSYPWTFGGGTKLEIKR = > 100000

get_value(item= monoclonal antibody 7C6 (antibody, V domains shown, Mouse monoclonal antibody from hybridoma; also called ML13-7C6.1D4.4A9.5G8; hybridoma ATCC PTA-7240) VH: EVKLVESGGGLVKPGGSLKLSCAASGFTFSSYAMSWVRQTPAKRLEWVASIHNRGTIFYLDSVKGRFTISRDNVRNTLYLQMSSLRSEDTAIYYCTRGRSNSYAMDYWGQGTSVTVSS VL: DVLVTQSPLSLPVRLGDQASISCRSTQTLVHRNGDTYLEWYLQKPGQSPKSLIYKVSNRFSGVPDRFSGSGSGTDFTLKISRVEAEDLGVYYCFQGSHVPYTFGGGTKLEIKR , readout=relation between recognition of Aβ(20-42) globulomer and the respective Aβ form) returns > 100000

Looking up monoclonal antibody 10C1 (antibody, V domains shown, Mouse monoclonal antibody from hybridoma; also called ML15-10C1.5C6.3H4; hybridoma ATCC PTA-7810) VH: EVKLVESGGGLVQPGGSRKLSCAASGFTFSDYEMVWVRQAPGKGLEWVAYINSGSGTIHYADTVKGRFTISRDNPKNTLFLQMSSLRSEDTAMYYCARTLLRLHFDYWGQGTILTVSS VL: DIVMSQSPSSLAVSVGEKVTMSCKSSQSLFYSRNQKNFLAWYQQKPGQSPKLLIYWASTGESGVPDRFTGSGSGTDFTLTISSVKAEDLAVYYCQQYFSYPWTFGGGTKLEIKR , I see its relation between recognition of Aβ(20-42) globulomer and the respective Aβ form listed as > 100000
